System: HEK-293T
Assay: Multiplex assay against HEK293T;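 also: share of the cells with healthy nuclei that show this phenotype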
Assay type: toxicity, cell-based
Conditions: human, 48 h, 1 µM, compound concentration 1 uM, replicate 2
Population Tubulin-Different-Phenotype (%): recorded values
Measured Endpoint: Population Tubulin-Different-Phenotype (%)

Compound	Units Text	Measured
O=C1NC(=O)C(c2cnc3ccccn23)=C1c1cn2c3c(cc(F)cc13)CN(C(=O)N1CCCCC1)CC2	%	57
O=C(Nc1ccc(-c2ccnc(Nc3ccc(N4CCOCC4)cc3)n2)cc1)[C@@H]1CCCN1	%	25
CCn1c(=O)c(-c2ccc(-c3cncs3)cc2Cl)cc2cnc(Nc3ccc(N4CCN(C)CC4)cc3)nc21	%	29
CCCn1c(=O)c2[nH]c(-c3cnn(Cc4cccc(C(F)(F)F)c4)c3)nc2n(CC)c1=O	%	12
CCOc1cc2ncc(C#N)c(Nc3ccc(OCc4ccccn4)c(Cl)c3)c2cc1NC(=O)/C=C/CN(C)C	%	27
O=C1N/C(=N/c2ccccc2F)S/C1=C\c1ccc(C(=O)O)cc1	%	24
Cl.O=c1c2cccn2c2ccccc2n1CCCN1CCC(c2ccc(Cl)cc2)CC1	%	54
COc1cc(N2CCN(C)CC2)ccc1Nc1ncc2c(n1)N(C)c1ccccc1C(=O)N2C	%	16
O=C(Nc1ccc(-n2nc(-c3cccnc3)cc2C(F)(F)F)cn1)c1ccc(-c2ccccc2)c(F)c1	%	6
CCOc1cc(C(=O)N2CCC(N3CCN(C)CC3)CC2)ccc1Nc1ncc2c(n1)N(C1CCCC1)c1ccccc1C(=O)N2C	%	63
CN(C)C(=O)C(CCN1CCC(O)(c2ccc(Cl)cc2)CC1)(c1ccccc1)c1ccccc1.Cl [LOPERAMIDE HYDROCHLORIDE]	%	89
O=C(Cc1ccc(-c2ccc(OCCN3CCOCC3)cc2)cn1)NCc1ccccc1	%	50
S=C(NCCCc1c[nH]cn1)NCCCN(Cc1ccc(Cl)c(Cl)c1)c1ccc(Br)cn1	%	53
O=C(Nc1ccc(Cl)cc1)Nc1cccc(-c2cccc(N3CCCC3)n2)c1	%	19
CN1C2CCC1CC(OC(c1ccc(F)cc1)c1ccc(F)cc1)C2.Cl (stereo unspecified)	%	52
Cc1cc(C)c(S(=O)(=O)N(Cc2ccc(-c3cccc(S(C)(=O)=O)c3)cc2)Cc2ccc(C(F)(F)F)o2)c(C)c1	%	20
C=C1/C(=C\C=C2/CCC[C@]3(C)[C@@H]([C@H](C)/C=C/[C@H](C)C(C)C)CC[C@@H]23)C[C@@H](O)C[C@@H]1O	%	14
Cc1ccc(C(=O)Nc2cccc(C(F)(F)F)c2)cc1Nc1nc(-c2cccnc2)nc2c1cnn2C	%	96
Cc1cn(-c2cc(NC(=O)c3ccc(C)c(Nc4nccc(-c5cccnc5)n4)c3)cc(C(F)(F)F)c2)cn1	%	38
CCCS(=O)(=O)c1nc(NC2CC2)cc(-c2ccc3c(ccn3C3CC(C)(C)NC(C)(C)C3)c2)n1	%	64
CCOC(=O)c1c(C)[nH]c2ccc3c(c12)CN1CCc2cc(OC)ccc2C1O3 (stereo unspecified)	%	66
CN1CCC(=C2c3ccccc3CC(=O)c3sccc32)CC1.O=C(O)/C=C/C(=O)O [KETOTIFEN FUMARATE]	%	38
CCN1CCN(Cc2ccc(Nc3ncc(F)c(-c4cc(F)c5nc(C)n(C(C)C)c5c4)n3)nc2)CC1.CS(=O)(=O)O	%	93
Cl.Oc1ccc2c3c1O[C@H]1c4[nH]c5c(c4C[C@@]4(O)[C@@H](C2)N(CC2CC2)CC[C@]314)C[C@@]1(O)[C@H]2Cc3ccc(O)c4c3[C@@]1(CCN2CC1CC1)[C@H]5O4	%	23
CCc1cccc(CC)c1NC(=O)c1nn(C)c2c1CCc1cnc(Nc3ccc(C(=O)NC4CCN(C)CC4)cc3OC(F)(F)F)nc1-2	%	43
CNc1cc(Oc2cc(C(=O)Nc3cc(N4CCN(C)CC4)cc(C(F)(F)F)c3)ccc2C)ncn1	%	51

###

Tested on: Fibroblast
Test: Multiplex assay against human fibroblast
Format: toxicity, cell-based
Settings: 48 h, 10 µM, compound concentration 10 uM, replicate 1
Hi, to clarify the labels: condition met covers Population Tubulin-Different-Phenotype (%) from 60% upward, condition not met covers anything below 60%.

> print(dat)
                               given.smiles      system              label
1  CN1CCN(C(=O)C(C)(C)c2ccc(C(=O)Nc3cn4cc(-c5ccncc5)ccc4n3)cc2)CC1  Fibroblast      condition met
2  Cc1ccc(C(=O)Nc2cccc(C(F)(F)F)c2)cc1Nc1nc(-c2cccnc2)nc2c1cnn2C  Fibroblast      condition met
3  Cc1cc(C)c(S(=O)(=O)N(Cc2ccc(-c3cccc(S(C)(=O)=O)c3)cc2)Cc2ccc(C(F)(F)F)o2)c(C)c1  Fibroblast      condition met
4  CCc1cccc(CC)c1NC(=O)c1nn(C)c2c1CCc1cnc(Nc3ccc(C(=O)NC4CCN(C)CC4)cc3OC(F)(F)F)nc1-2  Fibroblast  condition not met
5  O=C(Nc1ccc(Cl)cc1)Nc1cccc(-c2cccc(N3CCCC3)n2)c1  Fibroblast  condition not met

###

Tested on: U2OS
Assay: Multiplex assay against U2OS
Format: toxicity, cell-based
Conditions: human, 12 h, 1 µM, compound concentration 1 uM, replicate 1
Population Mitotic Cells (%): recorded values

Compound	Population Mitotic Cells (%)
CN(C)C(=O)C(CCN1CCC(O)(c2ccc(Cl)cc2)CC1)(c1ccccc1)c1ccccc1.Cl [LOPERAMIDE HYDROCHLORIDE]	62
O=C1NC(=O)C(c2cnc3ccccn23)=C1c1cn2c3c(cc(F)cc13)CN(C(=O)N1CCCCC1)CC2 [LY-2090314]	62
COc1cc2ncnc(Nc3ccc(F)c(Cl)c3)c2cc1NC(=O)/C=C/CN1CCCCC1 [DACOMITINIB ANHYDROUS]	94
CCOC(=O)c1c(C)[nH]c2ccc3c(c12)CN1CCc2cc(OC)ccc2C1O3 (stereo unspecified)	27
O=C(Nc1cccnn1)N1CCC(=Cc2cccc(Oc3ccc(C(F)(F)F)cn3)c2)CC1	63
CCOc1cc(C(=O)N2CCC(N3CCN(C)CC3)CC2)ccc1Nc1ncc2c(n1)N(C1CCCC1)c1ccccc1C(=O)N2C	26
O=C(Nc1ccc(Cl)cc1)Nc1cccc(-c2cccc(N3CCCC3)n2)c1	55
COc1cccc2cc(-c3nc([C@H]4CC[C@H](C(=O)O)CC4)n4ncnc(N)c34)[nH]c12 [OSI-027]	44
CCc1cccc(CC)c1NC(=O)c1nn(C)c2c1CCc1cnc(Nc3ccc(C(=O)NC4CCN(C)CC4)cc3OC(F)(F)F)nc1-2	65
CCN1CCN(Cc2ccc(Nc3ncc(F)c(-c4cc(F)c5nc(C)n(C(C)C)c5c4)n3)nc2)CC1.CS(=O)(=O)O	53
CCNc1cc(N[C@H]2CC[C@H](O)CC2)nc(Nc2ccc3c(ccn3Cc3ccccc3)c2)n1	35
Cc1ccc(C(=O)Nc2cccc(C(F)(F)F)c2)cc1Nc1nc(-c2cccnc2)nc2c1cnn2C	58
CN1C2CCC1CC(OC(c1ccc(F)cc1)c1ccc(F)cc1)C2.Cl (stereo unspecified)	54
Cc1cc(C)c(S(=O)(=O)N(Cc2ccc(-c3cccc(S(C)(=O)=O)c3)cc2)Cc2ccc(C(F)(F)F)o2)c(C)c1	50
Cl.Oc1ccc2c3c1O[C@H]1c4[nH]c5c(c4C[C@@]4(O)[C@@H](C2)N(CC2CC2)CC[C@]314)C[C@@]1(O)[C@H]2Cc3ccc(O)c4c3[C@@]1(CCN2CC1CC1)[C@H]5O4	61
COC(=N)c1nc2ccc3ncnc(Nc4ccc(OC)cc4F)c3c2s1	63

###

Population Mitochondria Different-Phenotype (%): recorded values
Tested on: Fibroblast
Test: Multiplex assay against human fibroblast
Type: toxicity, cell-based
Conditions: 48 h, 1 µM, compound concentration 1 uM, replicate 1
Measured Endpoint: Population Mitochondria Different-Phenotype (%)

> print(dat)
                                   compound  measured
1  O=C(Nc1ccc(Cl)cc1)Nc1cccc(-c2cccc(N3CCCC3)n2)c1         1
2  COc1cc(N2CCN(C)CC2)ccc1Nc1ncc2c(n1)N(C)c1ccccc1C(=O)N2C         1
3  Cc1ccc(C(=O)Nc2cccc(C(F)(F)F)c2)cc1Nc1nc(-c2cccnc2)nc2c1cnn2C         0
4  O=C1NC(=O)C(c2cnc3ccccn23)=C1c1cn2c3c(cc(F)cc13)CN(C(=O)N1CCCCC1)CC2        25
5  CCCS(=O)(=O)c1nc(NC2CC2)cc(-c2ccc3c(ccn3C3CC(C)(C)NC(C)(C)C3)c2)n1        10
6  O=C(Cc1ccc(-c2ccc(OCCN3CCOCC3)cc2)cn1)NCc1ccccc1         2
7  CCOc1cc(C(=O)N2CCC(N3CCN(C)CC3)CC2)ccc1Nc1ncc2c(n1)N(C1CCCC1)c1ccccc1C(=O)N2C         8
8  CCn1c(=O)c(-c2ccc(-c3cncs3)cc2Cl)cc2cnc(Nc3ccc(N4CCN(C)CC4)cc3)nc21         2
9  CCOC(=O)c1c(C)[nH]c2ccc3c(c12)CN1CCc2cc(OC)ccc2C1O3 (centres undefined)         9

Source: ChEMBL document CHEMBL4689842
